The measured values listed here are drawn from PubChem BioAssay AID489027.

biological target: UPR counterscreen luciferase reporter, luminescence; assay: luciferase reporter activation, UPR counterscreen line – cell-based, luminescence, counter-screen for adaptive UPR activator project, dose response (AID 489027)
Active and inactive are the calls of the source. No rule for the calls is given here.
Outcome codes: TRUE for active, FALSE for inactive

INSERT INTO measurements (compound, class_assignment) VALUES
  ('O=C(NC1CCCCC1)c1cccc2c1C(=O)c1ccc(-c3ccc(OC(F)(F)F)cc3)cc1S2(=O)=O', 'FALSE'),
  ('CCCCCn1c(N)c(-c2nc3ccccc3o2)c2c([N+](=O)[O-])nn(CC)c(=O)c21', 'FALSE'),
  ('CCOC(=O)c1nnn2c1nc(Nc1cccc(C(F)(F)F)c1)c1ccccc12', 'TRUE'),
  ('C=CCOc1ccc(/C=N/N2C(=O)C(CC(=O)Nc3ccc(F)cc3F)SC2=NC)cc1 (stereo not given)', 'FALSE'),
  ('COc1ccc(OC)c(-c2nnc3n2N=C(c2ccc(OC)c(OC)c2)CS3)c1', 'FALSE');
